Numbers sourced from patent US20230220057A1.

- system: T1, human NGF-Fc protein (human, UniProt P01138 122-241, limits assumed)
- T1 construct: not shown: human IgG1 Fc or IgG4 Fc
- T1 sequence (P01138 122-241 limits assumed): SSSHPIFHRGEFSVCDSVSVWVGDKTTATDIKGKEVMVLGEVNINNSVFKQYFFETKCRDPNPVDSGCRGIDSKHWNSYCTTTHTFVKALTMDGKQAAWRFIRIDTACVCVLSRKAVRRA
- protocol_notes: BLI (Octet Red), human NGF-Fc captured on anti-human Fc sensors, Fab in solution
- Description: FortéBio BioLayer Interferometry (BLI) technology was chosen as the method for affinity determination by using Octet Red system. NGF is a homodimer protein in its nature form. […] After purification, the Fab concentration was determined by OD280 according to the extinction coefficient calculated based on its sequence. […] The kinetic data were analyzed using program Data Analysis HT 10.0 according to the manual. […]
measurement_type: pKd
// returns pKd (minus log10 of molar concentration), number only

The binder listed as Ab54 Fab (Fab, V domains shown) VH: EVQLVQSGAEVKKPGESLKISCKISGYSFITYWISWVRQMPGKGLEWMGAIDPSDSDARYSPSFQGQVTISADKSISTAYLQWSSLKASDTAMYYCAKSDPGYSGYSLLYGFDSWGQGTLVTVSS VL: DVVMTQSPLSLPVTLGQPASISCRSSQSLVQRNGNTYLSWYQQRPGQSPRLLIYQVSNRYSGVPDRFSGSGSGTDFTLKISRVEAEDVGVYYCGQGAHLPLTFGQGTKVEIK has a reported pKd of 9.83

Recorded pKd (binder Ab37 Fab (Fab, V domains shown) VH: EVQLVQSGAEVKKPGATVKISCKVSGYTFITYWISWVQQAPGKGLEWMGAIDPSDSDARYSPSFQGRVTITADKSTDTAYMELSSLRSEDTAVYYCAKSDPGYSGYSLLYGFDSWGQGTLVTVSS VL: DIVMTQSPLSLPVTLGQPASISCRSSQSLVQRNGNTYLSWFQQRPGQSPRLLIYQVSNRYSGVPDRFSGSGSGTDFTLKISRVEAEDVGVYYCGQGAHLPLTFGQGTKVEIK ): 8.49

# pKd (binder: Ab44 Fab (Fab, V domains shown) VH: EVQLVQSGAEVKKPGESLKISCKGSGYSFITYWISWVRQMPGKGLEWMGAIDPSDSDARYSPSFQGQVTISADKSISTAYLQWSSLKASDTAMYYCAKSDPGYSGYSLLYGFDSWGQGTLVTVSS VL: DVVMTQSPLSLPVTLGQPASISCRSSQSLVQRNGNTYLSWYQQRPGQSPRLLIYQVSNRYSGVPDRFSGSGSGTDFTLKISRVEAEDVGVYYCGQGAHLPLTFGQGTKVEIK ) is 9.15
